target: Voltage-gated potassium channel subunit beta-2 (Rattus norvegicus) (UniProt P62483); assay: inhibitors of rat Kvbeta2 reductase activity – biochemical, NADPH fluorescence, primary screen (AID 622); conditions: recombinant KvBeta, 4-cyanobenzaldehyde reduction, at 10 µM, hits give high values;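 note: slope of raw intensity against log time taken from 70 to 1610 s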
Sequence (P62483 whole entry, looked up): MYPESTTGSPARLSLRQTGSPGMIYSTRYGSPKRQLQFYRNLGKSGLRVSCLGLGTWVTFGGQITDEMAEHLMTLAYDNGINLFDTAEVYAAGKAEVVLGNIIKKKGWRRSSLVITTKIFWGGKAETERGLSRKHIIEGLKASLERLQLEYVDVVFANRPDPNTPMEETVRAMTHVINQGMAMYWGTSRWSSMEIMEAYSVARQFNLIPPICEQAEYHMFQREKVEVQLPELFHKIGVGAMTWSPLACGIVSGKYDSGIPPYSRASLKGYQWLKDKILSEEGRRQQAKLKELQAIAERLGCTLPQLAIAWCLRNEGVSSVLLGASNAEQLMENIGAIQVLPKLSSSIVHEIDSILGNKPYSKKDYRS
Readings of fluorescence slope for the listed compounds
No unit in the answer, only the number.

Take a look at these entries with their results.
OC(CN1CCOCC1)Cn1c(-c2cccc(Cl)c2)nc2ccccc21 (centres undefined)    -0.598
CCOC(=O)N1CCC(NC(=O)Cn2cc3c(n2)CCC(C)C3)CC1 (centres undefined)    -0.479
Cn1c(=O)c2c(nc(CN3CCN(c4ccccc4F)CC3)n2CCN2CCOCC2)n(C)c1=O    -0.288
COc1cc(C2=NOC(C(=O)NCc3ccc(F)cc3)C2)cc(OC)c1OC (centres undefined)    -0.462
O=C(Nc1ccccc1)c1cccc(N2CCCC2=O)c1    -0.457

Would you mind telling me what fluorescence slope value was observed for CCOc1ccccc1C(=O)NCC(=O)OCC(=O)N1C(C)CCCC1C (centres undefined) ?
-0.615

Would you mind telling me what fluorescence slope value was observed for `CCOC(=O)c1cc2c(=O)n3cccc(C)c3nc2n(Cc2ccco2)c1=NC(=O)c1cccnc1` ?
-0.439

Would you mind telling me what fluorescence slope value was observed for Cc1cc(C)c(NC(=O)CSc2nc3c(c(=O)n2C)SC(C)C3)c(C)c1 (centres undefined) ?
-0.565

###

Readings of fluorescence slope for the listed molecules
molecular target: Voltage-gated potassium channel subunit beta-2 (Rattus norvegicus) (UniProt P62483); assay: inhibitors of rat Kvbeta2 reductase activity – biochemical, NADPH fluorescence, primary screen (AID 622); conditions: recombinant KvBeta, 4-cyanobenzaldehyde reduction, at 10 µM, hits give high values;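 note: slope of raw intensity against log time taken from 70 to 1610 s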
No unit in the answer, only the number.

Take a look at these entries with their results.
Cc1onc(-c2ccccc2)c1C(=O)N1CCCSC1=Nc1ccccc1    -0.567
COCCNC(=O)C(C)N(c1ccc(Oc2ccccc2)cc1)S(C)(=O)=O (stereo not drawn)    -0.445
Cc1cc(=O)[nH]c(SCC(=O)NCc2ccco2)n1    -0.57
CCCc1cc(N2CCCC2)n2nc(C)c(-c3ccccc3)c2n1    -0.118
COCCCn1c(=N)c(C(=O)NCC2CCCO2)cc2c(=O)n3cccc(C)c3nc21 (stereo not drawn)    -0.0296
COc1ccc(C(=O)N2CCOCC2)cc1Br    -0.49

Would you mind telling me what fluorescence slope value was observed for O=C(NCc1cccs1)C(Cc1ccccc1)NS(=O)(=O)c1cccs1 (stereo not drawn) ?
-0.437

Would you mind telling me what fluorescence slope value was observed for CC(c1ccco1)N(C(=O)c1ccc(S(=O)(=O)N2CCCCC2)cc1)c1ccccn1 (stereo not drawn) ?
-0.506

Would you mind telling me what fluorescence slope value was observed for `CC1(C)CC(=O)C(C=Nc2ccncc2)=C(O)C1` ?
-0.607

###

experiment: reduction of polyQ htt aggregates in cells – imaging, exon1htt(103Q)mCFP cells, high-content imaging, primary screen (AID 483); settings: exon1htt(103Q)mCFP cell line, aggregate imaging, at 2 µM; hits give high values;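 note: compound exposure lasted 3 days before fixation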
Activity calls are given as the source filed them.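 The calls were made as follows: active = visual image review flags a hit and inhibition of aggregation exceeds 20%; inconclusive = visual hit but inhibition at or below 20%; inactive = no hit on visual image review.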
Readings of inhibition of aggregation for the listed molecules

Take a look at these entries with their results.
COc1ccc(-c2ccc(CCC(=O)O)n2NC(=O)c2cccs2)cc1    -1.9% (inactive)
CCOC(=O)CNc1ccc2c(c1)OCO2    8.3% (inactive)

Would you mind telling me what inhibition of aggregation value was observed for `O=C(CCC(=O)OCCCC(F)(F)C(F)(F)F)NC1CCCCC1` ?
5.5% (inactive)

Would you mind telling me what inhibition of aggregation value was observed for O=C1C2CCCN2C(c2ccccc2)N1c1ccc(Cl)cc1 (centres undefined) ?
-14.7% (inactive)

Would you mind telling me what inhibition of aggregation value was observed for `O=C(Nc1ccc(N2CCOCC2)cc1)Nc1ccc2nc(-c3ccco3)c(-c3ccco3)nc2c1` ?
-8.6% (inactive)

Would you mind telling me what inhibition of aggregation value was observed for `Cc1cccc(-n2c(SCc3cc(=O)n4ccsc4n3)nc3ccccc32)c1` ?
-3.6% (inactive)

Would you mind telling me what inhibition of aggregation value was observed for COCCNC(=O)C(c1ccc(C)o1)N(Cc1cccs1)C(=O)c1snc(C(N)=O)c1N (centres undefined) ?
6.6% (inactive)

Would you mind telling me what inhibition of aggregation value was observed for COCc1nnc(SCC(=O)NC(C)c2ccccc2)n1-c1ccccc1 (centres undefined) ?
5.8% (inactive)

Would you mind telling me what inhibition of aggregation value was observed for `Cn1c(=O)[nH]c(=O)c2c1nc(NCCCn1ccnc1)n2Cc1ccccc1` ?
-7.8% (inactive)

Would you mind telling me what inhibition of aggregation value was observed for `Cc1cc(Cl)ccc1NC(=O)CSc1nnc(Cc2cccs2)n1Cc1ccco1` ?
27.5% (inactive)
